Test system: Saos-2 (Osteosarcoma)
ASSAY TEXT: combination Emax (second highest fraction inhibited in the dose matrix, 72 h); higher = more inhibition; extreme values may be limits of the assay
Answer 0 if combination Emax is under 0.7, and 1 if it is 0.7 or more.

{"COMPOUND": "C[C@@H](Oc1cc(-c2cnn(C3CCNCC3)c2)cnc1N)c1c(Cl)ccc(F)c1Cl [Crizotinib] + Cn1cnc2c(F)c(Nc3ccc(Br)cc3Cl)c(C(=O)NOCCO)cc21 [Selumetinib] (first compound max 10 µM, 7x7, partner max 10 µM)", "CLASS ASSIGNMENT": 1}

Prompt line: Hello, I need to know if COc1nnc2ccc(N3CCC(c4ccc(OCCN5CCN(C)C(=O)[C@H]5C)cc4)CC3)nn12 [AZD5153] + CC1(C)CCC(CN2CCN(c3ccc(C(=O)NS(=O)(=O)c4ccc(NCC5CCOCC5)c([N+](=O)[O-])c4)c(Oc4cnc5[nH]ccc5c4)c3)CC2)=C(c2ccc(Cl)cc2)C1 [Venetoclax] (first compound max 1 µM, 7x7, partner max 1 µM) has measured combination Emax not below 0.7. Thanks!
Response line: 0

Prompt line: Quick check: does C=CCn1c(=O)c2cnc(Nc3ccc(N4CCN(C)CC4)cc3)nc2n1-c1cccc(C(C)(C)O)n1 [AZD1775] + CCc1c2c(nc3ccc(O)cc13)-c1cc3c(c(=O)n1C2)COC(=O)[C@]3(O)CC [SN-38] (first compound max 1 µM, partner max 0.3 µM) have combination Emax greater than or equal to 0.7?
Response line: 1

Prompt line: State whether the measured combination Emax reaches 0.7, counting equality as reaching it, for Cc1cc2ncnn2cc1Nc1ncc2c(n1)n(C1CCOCC1)c(=O)n2C [AZD7648] + CN(C)CCCOc1ccc(-c2ccc3ncc4c(c3c2)n(C2CCOCC2)c(=O)n4C)cn1 [AZD0156] (first compound max 10 µM, 7x7, partner max 1 µM)
Response line: 0
